experimental_protocol: PrestoBlue assay, separate cultures
Type: cell-based
setup_conditions: human, CMV/U251 cells, separate culture, 80 μM Luc free or loaded, read-out: viability compared to untreated controls

- query_smiles: "CCN(CC)CCNc1ccc(C)c2sc3ccccc3c(=O)c12"
  viability at 24 h, 80 μM: "~40%"

###

experimental_protocol: PrestoBlue assay, CG-4-CMV/U251 co-culture
Type: cell-based
setup_conditions: human, CMV/U251 cells on coverslips, co-cultured with CG-4 cells, CMV/U251 in co-culture with CG-4, 80 μM Luc free or loaded, read-out: viability compared to untreated controls

- compound: "CCN(CC)CCNc1ccc(C)c2sc3ccccc3c(=O)c12 [Lucanthone]"
  viability at 24 h, 80 μM: "~15%"

###

experimental_protocol: PrestoBlue assay, CG-4-CMV/U251 co-culture
Type: cell-based
setup_conditions: rat, CG-4 cells on coverslips, co-cultured with CMV/U251 cells, CG-4 in co-culture with CMV/U251, 80 μM Luc free or loaded, read-out: viability compared to untreated controls
measured_attribute: viability at 24 h, 80 μM

- compound: "CCN(CC)CCNc1ccc(C)c2sc3ccccc3c(=O)c12 [Lucanthone]"
  measured_value: "~30%"

Reference for the values: patent US20180147296A1
